Target: His-GST-TVMV-hRIPK1(1-324) (Homo sapiens, UniProt Q13546)
Construct: The coding region of human RIPK1(1-324) flanked by NdeI site at 5′ end; made in house; host or cells: Spodoptera frugiperda Sf9 insect cells (baculovirus, Bac-to-Bac)
Sequence (Q13546 1-324): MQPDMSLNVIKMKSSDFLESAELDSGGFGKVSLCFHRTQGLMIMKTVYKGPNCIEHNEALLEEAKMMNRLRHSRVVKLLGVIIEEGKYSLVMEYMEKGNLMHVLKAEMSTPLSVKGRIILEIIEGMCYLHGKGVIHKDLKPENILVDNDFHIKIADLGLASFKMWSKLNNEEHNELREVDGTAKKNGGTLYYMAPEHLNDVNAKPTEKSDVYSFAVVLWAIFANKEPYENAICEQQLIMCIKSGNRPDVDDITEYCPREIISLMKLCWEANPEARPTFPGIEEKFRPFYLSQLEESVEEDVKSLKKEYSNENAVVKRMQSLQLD
Test: biochemical
Type: binding
Conditions: HTRF probe displacement, 1 h at rt; read-out: RIPK1 IC50
Test Readout: IC50 (nM)
Note: unit nM is implicit; provide only the numeric part.

INPUT: Return reported IC50 for target or system His-GST-TVMV-hRIPK1(1-324) (Homo sapiens, UniProt Q13546), item Cc1ccc(-c2ccn3nc(N)nc3c2)c(F)c1C(=O)NCC(F)(F)C(O)c1ccc(F)cn1 (stereo not shown) [Example 115] .
OUTPUT: 3.6

INPUT: Consider the compound Nc1nc2cc(-c3ccc(Cl)c(C(=O)NCC(F)C(O)c4ccc(Cl)cc4)c3F)ccn2n1 (stereo not shown) [Example 128] tested on His-GST-TVMV-hRIPK1(1-324) (Homo sapiens, UniProt Q13546); state its IC50.
OUTPUT: 5

INPUT: Jot down IC50 (His-GST-TVMV-hRIPK1(1-324) (Homo sapiens, UniProt Q13546)) of COc1c(-c2ccc(C)c(C(=O)NCC[C@H](O)c3ccc(Cl)cc3)c2F)ccn2nc(N)nc12 (single isomer, unassigned; enantiomer 2) [Example 136] .
OUTPUT: 5.9

INPUT: Write IC50 of Nc1nc2cc(-c3ccc(Cl)c(C(=O)NCC(F)(F)C(O)c4cccc(F)c4F)c3F)ccn2n1 (single isomer, unassigned) [Example 166] ; system used: His-GST-TVMV-hRIPK1(1-324) (Homo sapiens, UniProt Q13546)
OUTPUT: 2.1

INPUT: Report IC50 on His-GST-TVMV-hRIPK1(1-324) (Homo sapiens, UniProt Q13546) for this entry: COC(c1ccc(F)cc1)C(F)(F)CNC(=O)c1c(C)ccc(-c2ccn3nc(N)nc3c2)c1F (single isomer, unassigned) [Example 234]
OUTPUT: 8.4

INPUT: Write IC50 of Cc1ccc(C(O)C(F)(F)CNC(=O)c2c(Cl)ccc(-c3ccn4nc(N)nc4c3)c2F)cc1 (stereo not shown) [Example 172] ; system used: His-GST-TVMV-hRIPK1(1-324) (Homo sapiens, UniProt Q13546)
OUTPUT: 1.3

INPUT: Provide IC50, tested on His-GST-TVMV-hRIPK1(1-324) (Homo sapiens, UniProt Q13546), for Cc1ccc(-c2ccn3nc(N)nc3c2)cc1C(=O)NCC[C@H](O)c1ccc(Cl)cc1 [Example 149] .
OUTPUT: 8.2

* * *

tested on: MLKL phosphorylation in HT29-L23 human colorectal adenocarcinoma cells; experiment: MLKL phosphorylation high-content assay; format: cell-based; conditions: Homo sapiens, 6 h, read-out: pMLKL IC50, HT29-L23 cells; necroptosis induced with TNFα, SMAC mimetic and Z-VAD, 6 h; maximal inhibition defined by Nec1s
Field: pIC50. Provide a value for each of the compounds that follow.
The meaning of pIC50 here: minus log10 of the concentration in molar units.

INPUT: Given Nc1nc2cc(-c3ccc(Cl)c(C(=O)NCC(F)(F)C(O)c4cccc(Cl)n4)c3F)ccn2n1 (single isomer, unassigned) , respond with its pIC50.
OUTPUT: 7.35

INPUT: Provide only the value of recorded pIC50 for Nc1nc2cc(-c3ccc(Cl)c(C(=O)NCC(F)C(O)c4ccc(Cl)cc4)c3F)ccn2n1 (stereo not drawn)
OUTPUT: 8.92

INPUT: Read the entry COc1ccc(C(O)C(F)(F)CNC(=O)c2c(Cl)ccc(-c3ccn4nc(N)nc4c3)c2F)cc1 (single isomer, unassigned) and write its reported pIC50.
OUTPUT: 9.40

INPUT: Give the reported value of pIC50 for this record: [2H]C([2H])([2H])c1ccc(-c2ccn3nc(N)nc3c2)c(F)c1C(=O)NCC(F)(F)C(O)(c1ccc(F)cc1)C([2H])([2H])[2H] (single isomer, unassigned)
OUTPUT: 8.92

INPUT: Return pIC50 for the following compound: Cc1ccc(-c2ccn3nc(N)nc3c2)c(F)c1C(=O)NC(C)CC(O)c1ccc(F)cc1 (stereo not drawn)
OUTPUT: 9.05

INPUT: Entry Cc1ccc(-c2ccn3nc(N)nc3c2)c(F)c1C(=O)NCCC(O)c1cccc(C#N)c1 (stereo not drawn) needs its pIC50 filled in; supply it.
OUTPUT: 7.89

INPUT: Report pIC50, nothing else, for this compound: Nc1nc2cc(-c3ccc(Cl)c(C(=O)NCCC(O)c4ccc(F)cc4)c3F)ccn2n1 (stereo not drawn) [Example 78]
OUTPUT: 8.00

INPUT: Tell us which pIC50 value is on record for `Nc1nc2cc(-c3ccc(C(F)F)c(C(=O)NCC(F)(F)[C@@H](O)c4ccc(F)cc4)c3F)ccn2n1`
OUTPUT: 8.85

INPUT: Supply recorded pIC50 for `Nc1nc2cc(-c3ccc(Cl)c(C(=O)NCCC4(c5ccc(F)cc5)CC4)c3F)ccn2n1` here.
OUTPUT: 8.96

INPUT: Answer with the recorded pIC50 for the compound listed here: `Nc1nc2cc(-c3ccc(F)c(C(=O)NCCC4(c5ccc(F)cc5)CC4)c3F)ccn2n1`
OUTPUT: 8.00

INPUT: Return value of pIC50 for input `Cc1cc(F)c(-c2ccn3nc(N)nc3c2)c(F)c1C(=O)NCC[C@@H](O)c1ccc(Cl)cc1` , no commentary.
OUTPUT: 7.42

INPUT: Read the entry Cc1cc(F)c(-c2ccn3nc(N)nc3c2)cc1C(=O)NCCC(O)c1ccc(F)cc1 (single isomer, unassigned) [Example 9] and write its reported pIC50.
OUTPUT: 8.62

INPUT: Tell me measured pIC50 for Cc1ccc(-c2ccn3nc(N)nc3c2)c(F)c1C(=O)NCCC(O)c1cccc(Cl)c1 (stereo not drawn) please.
OUTPUT: 8.59

INPUT: Given the compound `Cc1ccc(-c2ccn3nc(N)nc3c2)c(F)c1C(=O)NCC(F)(F)C1(c2ccc(F)cc2)COC1` , write its reported pIC50.
OUTPUT: 8.66

INPUT: # return recorded pIC50 for entry [2H]C([2H])(CC([2H])(O)c1ccc(Cl)cc1)NC(=O)c1c(F)ccc(-c2ccn3nc(N)nc3c2)c1F (single isomer, unassigned)
OUTPUT: 7.68

* * *

test system: MLKL phosphorylation in HT29-L23 human colorectal adenocarcinoma cells; test: MLKL phosphorylation high-content assay; assay type: cell-based; conditions: Homo sapiens, 6 h, read-out: pMLKL IC50, HT29-L23 cells; necroptosis induced with TNFα, SMAC mimetic and Z-VAD, 6 h; maximal inhibition defined by Nec1s
Test Readout: pIC50
When answering, recall that pIC50 equals minus log10 of the concentration in mol/L, and write that number alone.

INPUT: Indicate the recorded pIC50 value for this compound: Cc1ccc(-c2ccn3nc(N)nc3c2)c(F)c1C(=O)NCC(F)(F)C(N)c1ccc(F)cc1 (stereo not shown)
OUTPUT: 8.82

INPUT: Write down pIC50 measured for item `Nc1nc2cc(-c3ccc(Cl)c(C(=O)NCC(F)(F)C(=O)c4ccc(F)cc4)c3F)ccn2n1`
OUTPUT: 8.85

INPUT: For `CCc1ccc(-c2ccn3nc(N)nc3c2)c(F)c1C(=O)NCC[C@@H](O)c1ccc(Cl)cc1` , write its pIC50.
OUTPUT: 9.10

INPUT: Return pIC50 for the following compound: `COc1ccc(-c2ccn3nc(N)nc3c2)c(F)c1C(=O)NCC[C@H](O)c1ccc(Cl)cc1`
OUTPUT: 7.68

INPUT: Could you please provide reported pIC50 for `Nc1nc2cc(-c3ccc(Cl)c(C(=O)NCC[C@@H](O)c4ccc(Cl)cc4)c3F)ccn2n1` ? Thanks!
OUTPUT: 8.85

INPUT: Annotate the compound Cc1ccc(-c2ccn3nc(N)nc3c2)c(F)c1C(=O)NCCC(O)c1ccc(Cl)cc1F (single isomer, unassigned) with its measured pIC50.
OUTPUT: 9.22

INPUT: For the compound Nc1nc2cc(-c3ccc(Cl)c(C(=O)NCCC(O)c4ccc(Cl)cn4)c3F)ccn2n1 (stereo not shown) [Example 81] , give its reported pIC50.
OUTPUT: 7.42

Value source: patent US11767322B2
